molecular target: 5-hydroxytryptamine receptor 1B (Rattus norvegicus, UniProt P28564); format: cell membranes, Wistar, Cerebral cortex, Membrane; details: read-out: Ki; also: in other assays of this panel Not Active means under 50% inhibition at 10 µM
Sequence (P28564 whole entry): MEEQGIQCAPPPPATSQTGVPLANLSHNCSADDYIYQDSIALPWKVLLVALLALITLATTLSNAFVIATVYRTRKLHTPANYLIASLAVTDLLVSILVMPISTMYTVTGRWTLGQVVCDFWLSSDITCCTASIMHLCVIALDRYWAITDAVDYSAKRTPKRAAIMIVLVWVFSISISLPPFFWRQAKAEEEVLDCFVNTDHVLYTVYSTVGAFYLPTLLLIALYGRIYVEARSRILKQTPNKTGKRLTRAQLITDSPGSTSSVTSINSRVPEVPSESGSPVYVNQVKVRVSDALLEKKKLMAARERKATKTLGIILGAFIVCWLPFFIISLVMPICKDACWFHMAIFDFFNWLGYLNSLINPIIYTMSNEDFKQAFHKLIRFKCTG
reported-endpoint: Ki (nM)
Give bare numbers, in nM.

Consider the following illustrative entries.
CN1C[C@H](C(=O)N[C@]2(C)O[C@@]3(O)[C@@H]4CCCN4C(=O)[C@H](Cc4ccccc4)N3C2=O)C=C2c3cccc4[nH]cc(c34)C[C@H]21 0.091
COc1ccc(CCN2CCC(Nc3nc4ccccc4n3Cc3ccc(F)cc3)CC2)cc1 630
Clc1ccccc1C(c1ccccc1)(c1ccccc1)n1ccnc1 12400

Now consider a different compound.
stdin: Item CNCCC=C1c2ccccc2CCc2ccccc21 has what recorded Ki?
stdout: 1450

====

For each of the molecules below, state its pIC50.
Target: UniProtKB P08913
Sequence (P08913 whole entry): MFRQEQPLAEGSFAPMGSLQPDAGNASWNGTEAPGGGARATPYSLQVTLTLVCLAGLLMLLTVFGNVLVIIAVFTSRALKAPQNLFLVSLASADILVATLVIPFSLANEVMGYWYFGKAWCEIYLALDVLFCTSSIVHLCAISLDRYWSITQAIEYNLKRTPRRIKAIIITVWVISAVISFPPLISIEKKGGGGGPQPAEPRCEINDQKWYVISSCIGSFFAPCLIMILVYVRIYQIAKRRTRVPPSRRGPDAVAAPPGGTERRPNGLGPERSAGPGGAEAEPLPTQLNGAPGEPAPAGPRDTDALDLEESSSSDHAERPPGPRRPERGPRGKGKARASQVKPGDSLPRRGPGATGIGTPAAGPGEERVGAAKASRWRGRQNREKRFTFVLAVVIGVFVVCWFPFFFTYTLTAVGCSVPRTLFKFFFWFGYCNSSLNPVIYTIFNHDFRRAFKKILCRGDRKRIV
Assay type: cell membranes, Sf9, Membrane
Conditions: read-out: IC50
Numbers only, as −log10 of the molar value.

molecule	measured-target	val
COc1ccc(CN(CCN(C)C)c2ccccn2)cc1 [PYRILAMINE]	UniProtKB P08913	5.53

Report pIC50 for every entry below.
1. CN(C)CCCN1c2ccccc2CCc2ccc(Cl)cc21 [CLOMIPRAMINE]
2. CCCCCCCCCc1ccc(O)cc1 [4-NONYLPHENOL]
3. Clc1ccc(C(c2ccccc2Cl)C(Cl)Cl)cc1 (stereo unspecified) [MITOTANE]
4. CN1C[C@H](C(=O)N[C@]2(C)O[C@@]3(O)[C@@H]4CCCN4C(=O)[C@H](Cc4ccccc4)N3C2=O)C=C2c3cccc4[nH]cc(c34)C[C@H]21 [ERGOTAMINE]
5. Oc1c(Cl)cc(Cl)cc1Sc1cc(Cl)cc(Cl)c1O [BITHIONOL]

stdout:
1. 5.85
2. 5.17
3. 5.13
4. 8.67
5. 5.42

====

test: DRUGMATRIX: Phosphodiesterase PDE4 enzyme inhibition (substrate: [3H]cAMP + cAMP); conditions: u-937; Not Active = under 50% inhibition at 10 µM; read-out: IC50
For each of the molecules below, state its IC50.
Give bare numbers, in µM.

molecule	IC50 (µM)
O=c1cc(-c2ccccc2)oc2c1ccc1ccccc12 [ALPHA-NAPHTHOFLAVONE]	2.92

stdin: Item COC(=O)C1=C(C)NC(C)=C(C(=O)OC)C1c1ccccc1[N+](=O)[O-] [NIFEDIPINE] has what recorded IC50?
stdout: 44.2
